Each entry below lists one item and its recorded TGI value.
- System: HS 578T breast
- RUN DESCRIPTION: NCI tumour cell line growth inhibition, 48 h

- COMPOUND: "C[C@@]12CCC(=O)C=C1CC[C@H]1C2=CC[C@]2(C)C1CC[C@@]2(C)O (stereo partly drawn)"
  RESULT: "> 100 µM"

Query: What does the data say about its TGI? Entry: COc1ccc(O)c(C=NCCCN=Cc2cc(OC)ccc2O)c1
Result: 68 µM

Query: What does the data say about its TGI? Entry: CC1CCC2C(C(=O)O[C@H]3C4CCO[C@@H](OC5OC(CO)C(O)C(O)C5O)C4[C@@]4(CO)O[C@@H]34)=CO[C@@H](OC3OC(CO)C(O)C(O)C3O)C12 (stereo partly drawn)
Result: > 10 µM

* * *

- Test system: SW-620 colon
- RUN DESCRIPTION: NCI tumour cell line growth inhibition, 48 h
Where a SMILES comes first, the peptide text is derived from it. [ ]: non-standard residue; d: D form. The star is where a group is joined. Octanoyl = CCCCCCCC(=O)*; Aib = CC(C)(N)C(=O)O; tBu = CC(C)(C)*
QUANTITY KIND: TGI

- COMPOUND: "CCOC(=O)c1c(-c2ccc(OC)cc2)c(C#N)c(=S)n(C2OC(CO)C(O)C(O)C2O)c1-c1ccccc1 (configuration not stated)"
  RESULT: "> 100 µM"

Next up:
Query: What does the data say about its TGI? Entry: CCCCCCCC(=O)NC(C)(C)C(=O)NC(COC(C)(C)C)C(=O)NC(CC(C)C)C(=O)NC(C)(C)C(=O)NC(COC(C)(C)C)C(=O)NC(COC(C)(C)C)C(=O)NC(CC(C)C)C(=O)NC(C)(C)C(=O)NC(COC(C)(C)C)C(=O)NC(C(=O)NC(CC(C)C)C(=O)OC)C(C)CC (configuration not stated) (Octanoyl-[Aib]S(tBu)L[Aib]S(tBu)S(tBu)L[Aib]S(tBu)IL-OMe; configuration not given here)
Result: > 25 µM

* * *

- Tested on: PC-3 prostate
- RUN DESCRIPTION: NCI tumour cell line growth inhibition, 48 h
QUANTITY KIND: TGI

A selection of reference data follows.
- COMPOUND: "COc1cc2nc(Nc3cccc(F)c3)nc(Nc3cc(C)[nH]n3)c2cc1OC"
  TESTED SYSTEM: "PC-3 prostate"
  RESULT: "3.39 µM"
- COMPOUND: "CC(NC(=O)OC(C)(C)C)C(=O)C(N)=O (stereo unspecified)"
  TESTED SYSTEM: "PC-3 prostate"
  RESULT: "> 100 µM"
- COMPOUND: "CS(=O)(=O)Nc1ccc(Nc2c3ccccc3nc3ccccc23)cc1"
  TESTED SYSTEM: "PC-3 prostate"
  RESULT: "19.3 µM"

Query: What does the data say about its TGI? Entry: COC(=O)C(Cc1ccccc1)OC(=O)C(N)CC(=O)O (stereo unspecified)
Result: > 100 µM

Query: What does the data say about its TGI? Entry: Nc1ncnc2c1ncn2C1OC(CO)=CC1O (stereo unspecified)
Result: > 37.5 µM

Query: What does the data say about its TGI? Entry: NC1=N/C(=C2/CCNC(=O)c3[nH]c(Br)cc32)C(=O)N1
Result: > 100 µM

* * *

- System: SR leukemia
- RUN DESCRIPTION: NCI tumour cell line growth inhibition, 48 h
Each entry below lists one item and its recorded TGI value.

- COMPOUND: "COc1cc(/C=C2\\COc3ccc(O)c(O)c3C2=O)cc(OC)c1"
  RESULT: "12.5 µM"
- COMPOUND: "Cc1ccc(Cl)c(NC(=O)C(=O)C(C(=O)c2ccncc2)C2OC(=O)c3ccccc32)c1 (centres undefined)"
  RESULT: "> 100 µM"
- COMPOUND: "COC(=O)[C@]1(C)CCC[C@@]2(C)C1CCC1=CC3(C(C)C)CCC12OO3 (some centres undefined)"
  RESULT: "> 100 µM"
- COMPOUND: "CCOC(=O)c1c(-c2ccc(OC)cc2)c(C#N)c(=S)n(C2OC(CO)C(O)C(O)C2O)c1-c1ccccc1 (centres undefined)"
  RESULT: "> 100 µM"
- COMPOUND: "N#Cc1cc([N+](=O)[O-])ccc1NC(=O)C(=O)C(C(=O)/C=C/c1ccccc1)C1OC(=O)c2ccccc21 (centres undefined)"
  RESULT: "> 100 µM"

Query: What does the data say about its TGI? Entry: CC(CO)C1=CC(C#CCOCc2ccccc2)N(C(=O)Oc2ccccc2)c2ccccc21 (centres undefined)
Result: > 100 µM

Query: What does the data say about its TGI? Entry: CCOC(=O)c1sc(=S)c2c(C(=O)OCC)c(C(=O)OCC)sc2c1C(=O)OCC
Result: 35.4 µM

Query: What does the data say about its TGI? Entry: CCOC(=O)c1c(C(F)(F)F)n([O-])c2ccc(OC)cc2[n+]1=O
Result: 6.74 µM

Query: What does the data say about its TGI? Entry: COc1ccc(/C=C/C(=O)N[C@@H]2C(=O)N3[C@@H]2SC(C)(C)[C@@H]3C(=O)O)cc1
Result: > 100 µM

* * *

- Test system: OVCAR-5 ovarian
- RUN DESCRIPTION: NCI tumour cell line growth inhibition, 48 h
Class Satisfied: TGI at least 30 µM. Class Not satisfied: TGI below 30 µM.

Query: Given the entry COc1ccc2[nH]c3c(c2c1)COc1ccccc1C3=O , answer whether its TGI meets or surpasses 30 µM.
Result: Satisfied

Query: Given the entry CCOC(=O)c1[nH]c2ccccc2c1C(=O)C[C@H](NC(=O)C(F)(F)F)C(=O)OC , answer whether its TGI meets or surpasses 30 µM.
Result: Satisfied

Query: Given the entry CCOC(=O)CCC(NC(=O)c1ccc(OCc2nc3ccccc3n3cccc23)cc1)C(=O)OCC (configuration not stated) , answer whether its TGI meets or surpasses 30 µM.
Result: Satisfied

Query: Given the entry Cc1ccccc1CN1CC=c2ccccc2=N1 , answer whether its TGI meets or surpasses 30 µM.
Result: Satisfied

Query: Given the entry O=C(NO)C12C3C4C1C1C2C3C41C(=O)NO (configuration not stated) , answer whether its TGI meets or surpasses 30 µM.
Result: Satisfied

Query: Given the entry O=[N+]([O-])c1nccn1COCCF , answer whether its TGI meets or surpasses 30 µM.
Result: Satisfied

Query: Given the entry Cc1[nH]c(=O)nc(NCCNCCO)c1C(=O)Nc1c2ccccc2nc2ccccc12 , answer whether its TGI meets or surpasses 30 µM.
Result: Satisfied

Query: Given the entry O=C(COc1ccccc1)NS(=O)(=O)c1ccccc1 , answer whether its TGI meets or surpasses 30 µM.
Result: Satisfied

Query: Given the entry Cc1cc(Cl)ccc1N=C1NC(=O)C(CC(=O)Nc2ccc(Cl)cc2Cl)S1 (configuration not stated) , answer whether its TGI meets or surpasses 30 µM.
Result: Satisfied

Query: Given the entry Oc1ccc(Cn2c(-c3ccc(O)c(O)c3)nc3ccccc32)cc1O , answer whether its TGI meets or surpasses 30 µM.
Result: Satisfied

Query: Given the entry O=C(/C=C/c1ccco1)CC(=O)/C=C/c1ccco1 , answer whether its TGI meets or surpasses 30 µM.
Result: Not satisfied

Query: Given the entry CC(=O)Oc1cc2c(cc1OC(C)=O)[C@H]1CC[C@]3(C)[C@@H](OC(C)=O)CC[C@H]3[C@@H]1CC2 , answer whether its TGI meets or surpasses 30 µM.
Result: Not satisfied

Query: Given the entry COc1ccccc1Cn1nc(OC)c2cc([N+](=O)[O-])ccc21 , answer whether its TGI meets or surpasses 30 µM.
Result: Satisfied

Query: Given the entry Cc1ccc(S(=O)(=O)N2CCc3ccc(O)c4c3C2Cc2cc(Cl)ccc2-4)cc1 (configuration not stated) , answer whether its TGI meets or surpasses 30 µM.
Result: Not satisfied

Query: Given the entry CCOC(=O)c1cn(Cc2ccccc2)c(=O)n1Cc1ccccc1 , answer whether its TGI meets or surpasses 30 µM.
Result: Satisfied

Query: Given the entry Clc1c(Cl)c2c(Cl)c(Cl)c1C[P+](c1ccccc1)(c1ccccc1)CC[P+](c1ccccc1)(c1ccccc1)Cc1c(Cl)c(Cl)c(c(Cl)c1Cl)C[P+](c1ccccc1)(c1ccccc1)CC[P+](c1ccccc1)(c1ccccc1)C2 , answer whether its TGI meets or surpasses 30 µM.
Result: Not satisfied

* * *

Each entry below lists one item and its recorded TGI value.
- Tested on: NCI-H522 lung
- RUN DESCRIPTION: NCI tumour cell line growth inhibition, 48 h
Where a SMILES comes first, the peptide text is derived from it. [ ]: non-standard residue; d: D form. β3hI = CC[CH](C)[CH](N)CC(=O)O

Query: What does the data say about its TGI? Entry: Cc1cc(Cl)cc2c1NC(=O)C2(O)C(C)C(=O)c1ccc(Cl)cc1 (centres undefined)
Result: > 100 µM

Query: What does the data say about its TGI? Entry: O=c1[nH]nc(Cc2ccc(Cl)cc2)n1/N=C\c1ccc(/C=N/n2c(Cc3ccc(Cl)cc3)n[nH]c2=O)cc1
Result: > 100 µM

Query: What does the data say about its TGI? Entry: CN(C)c1ccc(/C=C(\NC(=O)c2ccccc2)C2NC(Cc3c[nH]c4ccccc34)C(=O)O2)cc1 (centres undefined)
Result: 24.4 µM

Query: What does the data say about its TGI? Entry: COc1ccc2c(c1)CC[C@@H]1[C@@H]2CC[C@]2(C)C(c3ccco3)=C(C=O)C[C@@H]12
Result: > 100 µM

Query: What does the data say about its TGI? Entry: CCCc1nc2c(C)cc(-c3nc4ccccc4n3C)cc2n1Cc1ccc(-c2ccccc2C(=O)O)cc1
Result: 46.5 µM

Query: What does the data say about its TGI? Entry: COc1ccc(/C=C/c2n[nH]c3ccc(N4CCOC4=O)cc23)cc1
Result: 14.5 µM

Query: What does the data say about its TGI? Entry: CC(C)[C@](O)(C(=O)OCC1CC[N+]2([O-])CC[C@@H](O)C12)[C@H](C)O (some centres undefined)
Result: > 375 µM

Query: What does the data say about its TGI? Entry: CCOC(=O)/C(=C/c1ccc(C#N)cc1)N(CC)CC
Result: > 100 µM

Query: What does the data say about its TGI? Entry: CCC(C)C(CC(=O)N1CCCC1C(=O)NC(C(=O)NC(C(=O)NCC(=O)NC(CC(N)=O)C(=O)NC(C(=O)NC(C(=O)NC(CCCCN)C(N)=O)C(C)CC)C(C)CC)C(C)C)C(C)CC)NC(=O)C(N)C(C)CC (stereo not drawn) (H-I[β3hI]PIVGNIIK-NH2; configuration not given here)
Result: > 50 µM

Query: What does the data say about its TGI? Entry: N#CC(c1cc2c(cc1Br)OCO2)N1CCOCC1 (centres undefined)
Result: > 100 µM

Query: What does the data say about its TGI? Entry: O=C1OC(O)C(Oc2ccc(Cl)cc2)=C1Cl (centres undefined)
Result: > 100 µM
